target: T1, human GH secretagogue receptor (human, UniProt Q92847 1-366); test: competition with 0.05 nM (125I)ghrelin on membranes of CHO-K1 cells expressing hGHS-R, filtration
T1 construct: whole, on cells; the Ca2+ assay used the whole cells; also called hGHS-R; ghrelin receptor
T1 sequence (Q92847 whole entry): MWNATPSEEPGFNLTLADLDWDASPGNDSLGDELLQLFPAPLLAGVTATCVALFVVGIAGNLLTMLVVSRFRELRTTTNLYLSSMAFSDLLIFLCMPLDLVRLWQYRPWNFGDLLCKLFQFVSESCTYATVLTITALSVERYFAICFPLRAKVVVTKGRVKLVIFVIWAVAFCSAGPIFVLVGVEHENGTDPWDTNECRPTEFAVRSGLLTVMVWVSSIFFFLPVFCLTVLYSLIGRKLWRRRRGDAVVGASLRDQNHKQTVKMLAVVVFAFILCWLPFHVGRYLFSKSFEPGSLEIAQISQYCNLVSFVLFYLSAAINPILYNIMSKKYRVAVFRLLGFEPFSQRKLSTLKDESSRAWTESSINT
Numbered stars: 1 amine (or outer) side, 2 acyl side, 3 side chain; on linkers, the order of the positions; unused ones are H or OH. Square brackets hold non-standard residues; d marks the D form. Glu(NH-hexyl) = N5-hexyl-L-glutamine (glutamic acid gamma-hexylamide), CCCCCCNC(=O)CC[C@H](N[*:1])C(=O)[*:2]; 1‑Apc = not defined here; Aib = CC(C)(N)C(=O)O
measured_attribute: pKi
Lab note: report pKi as minus log10 of the concentration in molar units, number only.

Challenge: Data request, read-out pKi, for Ac-[1‑Apc][Aib][Glu(NH-hexyl)]FLSPEH[Aib]RVQQRKESKKPPAKLQPR-NH2 (reading uncertain, Synthetic analog of human ghrelin(1-28)) [(Ac-1-Apc^1, Aib^2,10, Glu(NH-hexyl)^3)hGhrelin(1-28)-NH2]
Response given: 7.40
